# tested.target: monkey GPC3-His protein (monkey)
# assay.comment: ELISA, monkey GPC3-His coated; antibody 2.67 nM
In this section, each of the binders is paired with its reported OD450 nm.
Answer field: number only, no words.

The cases that follow already have their OD450 nm on record.
binder	value.observed
hAb007LH1L1a (antibody, human IgG1, V domains shown) VH: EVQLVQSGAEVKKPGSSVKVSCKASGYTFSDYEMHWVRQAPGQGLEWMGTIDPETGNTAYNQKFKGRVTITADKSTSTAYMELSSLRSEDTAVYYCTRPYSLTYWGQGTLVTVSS VL: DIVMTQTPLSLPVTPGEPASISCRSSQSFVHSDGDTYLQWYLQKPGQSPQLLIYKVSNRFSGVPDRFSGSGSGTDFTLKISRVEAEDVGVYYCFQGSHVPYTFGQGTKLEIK	2.21
hAb005LH2L1a (antibody, human IgG1, V domains shown) VH: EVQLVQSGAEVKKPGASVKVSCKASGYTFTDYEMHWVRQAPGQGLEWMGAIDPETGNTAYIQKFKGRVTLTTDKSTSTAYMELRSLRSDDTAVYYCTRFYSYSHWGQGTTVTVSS VL: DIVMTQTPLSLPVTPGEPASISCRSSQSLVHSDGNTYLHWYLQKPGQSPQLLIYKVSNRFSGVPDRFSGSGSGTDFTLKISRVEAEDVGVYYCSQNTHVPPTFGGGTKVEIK	0.136

Inquiry: Any idea what OD450 nm was measured for hAb005LH3L1a (antibody, human IgG1, V domains shown) VH: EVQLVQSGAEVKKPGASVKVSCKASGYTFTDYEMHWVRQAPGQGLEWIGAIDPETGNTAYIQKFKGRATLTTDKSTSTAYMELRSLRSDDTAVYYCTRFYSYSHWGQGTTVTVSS VL: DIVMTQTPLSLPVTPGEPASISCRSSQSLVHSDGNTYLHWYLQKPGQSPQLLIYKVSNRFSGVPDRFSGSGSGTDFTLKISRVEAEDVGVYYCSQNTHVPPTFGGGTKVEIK ?
Reply text: 0.098
